Quick reference: log10 EC50 of the listed items.
# tested.target: AgOAR45B (Anopheles gambiae, UniProt F5HJT6)
# Sequence (F5HJT6 entry or part of it): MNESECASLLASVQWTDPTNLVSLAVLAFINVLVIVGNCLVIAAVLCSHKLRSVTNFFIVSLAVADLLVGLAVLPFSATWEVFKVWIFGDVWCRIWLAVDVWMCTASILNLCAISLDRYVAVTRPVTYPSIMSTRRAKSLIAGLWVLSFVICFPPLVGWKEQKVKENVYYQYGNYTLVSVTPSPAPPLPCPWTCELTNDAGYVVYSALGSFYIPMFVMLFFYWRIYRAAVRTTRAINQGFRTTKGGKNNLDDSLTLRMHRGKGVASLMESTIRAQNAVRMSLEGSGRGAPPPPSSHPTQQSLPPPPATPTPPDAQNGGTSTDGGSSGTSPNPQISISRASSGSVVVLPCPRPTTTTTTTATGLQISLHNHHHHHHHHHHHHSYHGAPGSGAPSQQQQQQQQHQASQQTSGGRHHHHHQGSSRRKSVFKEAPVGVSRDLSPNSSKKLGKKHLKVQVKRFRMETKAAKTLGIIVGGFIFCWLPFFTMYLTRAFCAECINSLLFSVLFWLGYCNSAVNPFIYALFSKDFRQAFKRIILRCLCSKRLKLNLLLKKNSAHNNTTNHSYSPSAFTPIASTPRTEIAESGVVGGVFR
# Type: cell-based
# protocol.conditions: read-out: EC 50 (agonist); AgOAR45B, HEK293-CRE-Luc cells
Hello, just confirming the data are log10 of EC50 with units of nM.

Below are worked cases with known answers.
compound	measured.number
Clc1cccc(Cl)c1N=C1NCCN1	-0.62
NCCc1ccc(O)cc1	2.92
c1ccc(CC2=NCCN2)cc1	0.70

Reported log10 EC50, compound `c1ccc2c(CC3=NCCN3)cccc2c1` : ____
-0.64

Reported log10 EC50, compound `Cc1ccc(N(CC2=NCCN2)c2cccc(O)c2)cc1` : ____
0.76

Reported log10 EC50, compound NCC(O)c1ccc(O)cc1 (racemic) : ____
1.23
